Measured values drawn from paper PMC3499988 for this set.

Recorded pIC50 for the following binders
- MEASURED ON: HIV-1 YU-2 gp120 (HIV-1 (YU-2), UniProt P35961)
- EXPERIMENTAL PROTOCOL: SPR
pIC50: −log10 of the molar value.

Fab m18 D56A (HCDR2) (Fab, V domains shown) VH: VQLLESGPGVVKPSETLSLTCTVSGASVNNYYWTWVRQPPGKGLEWIGNVYDSGATNYNPSLSSRLSLSMDTSKNQFSLRLSSVTAADTATYYCARYHRHFIRGPLSFDYWGRGTLVTVSS VL: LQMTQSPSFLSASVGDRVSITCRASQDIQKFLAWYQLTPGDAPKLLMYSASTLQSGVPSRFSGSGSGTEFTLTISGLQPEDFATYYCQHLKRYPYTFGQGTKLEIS = < 6.00

Then there is this binder:
Lookup: Would you kindly share the measured pIC50 for Fab m18 S65A (HCDR2) (Fab, V domains shown) VH: VQLLESGPGVVKPSETLSLTCTVSGASVNNYYWTWVRQPPGKGLEWIGNVYDSGDTNYNPSLSARLSLSMDTSKNQFSLRLSSVTAADTATYYCARYHRHFIRGPLSFDYWGRGTLVTVSS VL: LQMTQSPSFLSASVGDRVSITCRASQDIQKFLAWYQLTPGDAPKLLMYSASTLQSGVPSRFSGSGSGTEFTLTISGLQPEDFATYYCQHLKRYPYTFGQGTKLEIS ?
Found: < 6.00
